Assign abundance fitness to each entry below.
B1: Gamma-crystallin C, residues 4 to 79; numbered along this chain, P07315 (parent)
chain: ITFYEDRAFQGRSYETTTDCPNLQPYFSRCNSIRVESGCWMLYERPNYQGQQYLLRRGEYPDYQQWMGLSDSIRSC

# Variants of: B1
# PROCEDURE TEXT: abundance fitness (aPCA) (normalised: wild type 0, dead -1); higher = more abundant; growth selection in yeast, the domain comes from the species named
# RUN CONDITIONS: Homo sapiens
Answers are plain numbers.

Here are 3 variants together with their reported answers.
Please give the measured abundance fitness for this variant: ITFYEDRATQGRSYETTTDCPNLQPYFSRCNSIRVESGCWMLYERPNYQGQQYLLRRGEYPDYQQWMGLSDSIRSC [F9T]
-0.56

Do the same for ITFYEDRAFQGRSYETTTDCPNLQPYFSRCNSIRVESGCWELYERPNYQGQQYLLRRGEYPDYQQWMGLSDSIRSC [M41E] please
0.059

Now consider ITFYEDRAFQGRSYETTTDCPNLQPYFSRCNSIRVESGCWMLSERPNYQGQQYLLRRGEYPDYQQWMGLSDSIRSC [Y43S] and answer again.
0.094

Go through the items and report each one's abundance fitness.
1. ITFYEDRAFQGRSYETTTDCPNLQPYFSRCNSIRVESGCWMLYERPNAQGQQYLLRRGEYPDYQQWMGLSDSIRSC [Y48A]
2. ITFYEDRAFQGRSYETTTDCPNLQPYFARCNSIRVESGCWMLYERPNYQGQQYLLRRGEYPDYQQWMGLSDSIRSC [S28A]
3. ITFYEDRAFQGRSYETTTDCPNLQPYFSRCNSIRVESGCWMLYERPNYQGQQYLLRRGEYPDYNQWMGLSDSIRSC [Q64N]

-0.329
-0.038
0.044

Look at each variant and report its abundance fitness.
1. ITFYEDRAFQGRSYETTTDCPNLQPYGSRCNSIRVESGCWMLYERPNYQGQQYLLRRGEYPDYQQWMGLSDSIRSC [F27G]
2. ITFYEDRAFQGRSYETTTDCPNLQPYFSRCNSIRVESGCWMLYERPNYQGQQYLLRRGEYPDYQQWMGLFDSIRSC [S70F]

-0.186
-0.053
